# System under test: Tyrosyl-tRNA synthetase, putative (Trypanosoma cruzi (strain CL Brener)) (UniProt Q4DSP6)
# Sequence (Q4DSP6 as listed by the source): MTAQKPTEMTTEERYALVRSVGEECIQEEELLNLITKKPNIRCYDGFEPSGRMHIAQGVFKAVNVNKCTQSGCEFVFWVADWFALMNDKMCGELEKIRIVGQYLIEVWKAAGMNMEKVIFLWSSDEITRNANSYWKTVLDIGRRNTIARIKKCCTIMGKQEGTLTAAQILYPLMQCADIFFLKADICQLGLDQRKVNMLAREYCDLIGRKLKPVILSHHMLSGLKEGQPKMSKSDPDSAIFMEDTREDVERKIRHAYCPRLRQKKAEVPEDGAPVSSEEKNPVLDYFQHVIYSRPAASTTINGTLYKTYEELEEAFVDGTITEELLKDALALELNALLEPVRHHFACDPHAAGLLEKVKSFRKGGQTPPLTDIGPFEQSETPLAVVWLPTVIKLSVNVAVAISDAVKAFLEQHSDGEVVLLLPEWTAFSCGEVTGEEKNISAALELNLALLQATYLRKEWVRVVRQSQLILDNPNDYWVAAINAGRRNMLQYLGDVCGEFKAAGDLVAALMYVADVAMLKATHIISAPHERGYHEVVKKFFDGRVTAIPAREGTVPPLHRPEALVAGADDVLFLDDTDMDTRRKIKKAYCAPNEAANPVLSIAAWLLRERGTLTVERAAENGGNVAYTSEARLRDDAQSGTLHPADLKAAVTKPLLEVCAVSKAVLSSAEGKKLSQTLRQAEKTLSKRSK
# Procedure summary: Trypanosoma cruzi tyrosyl tRNA synthetase (TcYRS) _High Tyrosine SOP; note: in the data most compounds retested in dose-response had high values
# Assay type: functional
# Parameters: scale not given: direction of the effect not stated beside the values
# Conditions used: 30 µM
Value type: Percent Effect (%)

1) CCCn1ncc2c(C(=O)Nc3n[nH]c(SC)n3)cc(C3CC3)nc21 | -10.6
2) COc1ccc(C[C@H]2CN(C(=O)c3ccncc3)CC[C@@H]2OC)cc1 | -2.9
3) CC(C)n1ccnc1CN1CCCN(C(=O)c2cc(Cl)c[nH]2)CC1 | 6.22
4) Cc1ccc(CN2CCCn3c(nc(CN4CCCC4)cc3=O)C2)s1 | 0.526
5) Cc1n[nH]c(=O)c2c(NC(=O)CN3CCOC(C)C3)oc(C)c12 (stereo not given) | 3.35
6) OC(COc1ccc(F)cc1)CN1CCC(Cn2cccn2)CC1 (stereo not given) | 10.8
7) CC(C)NC(=O)CC1COC2(CCN(Cc3cccs3)CC2)C1 (stereo not given) | 4.83
8) c1cnnc(N2CCCC2CNCc2ccsc2)c1 (stereo not given) | -0.478
9) CC(=O)N1N=C(c2ccccc2)OC1C(=O)NCCc1cccc(Cl)c1 (stereo not given) | 0
10) Cc1nc(CN(C)C2CCN(CCCOc3ccccc3)C2)no1 (stereo not given) | 8.82
11) CC(C)c1cc(NC(=O)CN2CCC(N3CCCCC3)CC2)on1 | 11.8
12) CCc1cc(O)nc(C2CCCN2C(=O)c2cccnc2)n1 (stereo not given) | 0
13) Nc1nc2nc(C3CCCN(C(=O)c4cscn4)C3)ccc2s1 (stereo not given) | 0
14) O=C(NCCC1=CCCCC1)C1CCCN(c2ccc3nncn3n2)C1 (stereo not given) | 3.72
15) Cc1cccnc1CNCC1(O)CCCN(Cc2ccc(F)cc2)C1=O (stereo not given) | 15.4

====

Known Percent Effect of a selection of molecules
# System under test: AMP-activated protein kinase, AMPK (Homo sapiens) (UniProt P54646+O43741+P54619+Q9UGJ0+Q9Y478+Q13131+Q9UGI9)
# Procedure summary: AMP-dependent Kinase enzyme assay. An in vitro enzyme assay that detects ADP turnover that is directly proportional to AMPK activity. This uses naive AMPK that is activated during the assay with MK-8722
# Type: functional
# Set-up: scale not given: direction of the effect not stated beside the values
# Conditions used: 30 µM
Value type: Percent Effect (%)

1. Cc1noc(C)c1C(=O)N1CCC(n2cccn2)CC1 | -9.16
2. COCCNC(=O)NCc1ccc(-n2ccc(C(F)(F)F)n2)cc1 | -8.71
3. Cc1csc(C(=O)N2CCC(S(C)(=O)=O)C2)c1 (centres undefined) | -5.3
4. CN(Cc1cnc(N)nc1)C(=O)C1CCN(C(=O)C2CCCC2)CC1 | -0.173
5. c1ccc(CCN2CCN(C3CCOC4(CCOCC4)C3)CC2)nc1 (centres undefined) | -2.83
6. O=C(Cn1ccc(=O)[nH]c1=O)NCc1cccnc1OCC(F)(F)F | -4.52
7. CCN(CC)c1ncccc1CNCc1ccc(Cl)s1 | -3.79
8. CCCN(CCc1ccccn1)C(=O)Cn1cc(C)cn1 | 3.83
9. CC(C)c1nnc(NC(=O)Cc2csc(-c3nnc[nH]3)n2)s1 | 6.49
10. CC(=O)NCc1ccc(C(=O)N2CCCc3c(F)ccc(C)c32)o1 | 0.928
11. COc1ccc2c(c1)CCCN(CC(=O)NCC1CCCO1)C2 (centres undefined) | -4.46
12. Cc1[nH]nc(CCC(=O)N2CCc3ncnc(NCCO)c3CC2)c1C | 3.08
13. C[C@@H](N)C(=O)N1CCC(c2[nH]ncc2-c2ccccc2)CC1 | -8.89
14. COc1ccc(-c2cc(C3CC3)c(C#N)c(N)n2)cc1F | 9.02
15. Cc1cc(C(=O)NCCN2CCCCCC2)nn1C(C)(C)C | 4.2
16. COc1ccc(S(=O)(=O)Nc2cccnc2-n2cncn2)cc1C | -0.234
17. CS(=O)(=O)c1ccc(NC(=O)NCCC2=CCCCC2)cc1 | -2.69
18. CN(C)C(CNC(=O)CCNC(=O)OCC(F)(F)F)c1ccsc1 (centres undefined) | 3.22
19. O=C(NCCS(=O)(=O)N1CCN(c2ncccn2)CC1)c1ccccc1 | -4.77
20. CCN(C)S(=O)(=O)N1CCC(C(O)c2ccc(F)cc2)CC1 (centres undefined) | -1.14
21. Cc1c(C(=O)N2CCCN(S(C)(=O)=O)CC2)cnn1C | 10.1
22. O=C(C1CC(c2cccc(F)c2)=NO1)N1CCc2ccccc21 (centres undefined) | 13.6
23. CC(=O)N[C@H]1CCO[C@@H](c2cccc(NC(=O)c3ccc(=O)[nH]n3)c2)C1 | 14.1
24. CCC(C)(CC(=O)OC)NCc1c(C)noc1C (centres undefined) | 4.75
